FYI, the data here is from patent US11926596B2.

target: recombinant ROCK2 (amino acids 1-552) (Homo sapiens, UniProt O75116); construct: ROCK2 (amino acids 1-552) proteins were purchased from ThermoFisher Scientific; purchased ThermoFisher Scientific; assay: Z'-lyte kinase assay, ROCK2; format: biochemical; settings: 3 μM; read-out: ROCK2 % inh
Sequence (O75116 1-552): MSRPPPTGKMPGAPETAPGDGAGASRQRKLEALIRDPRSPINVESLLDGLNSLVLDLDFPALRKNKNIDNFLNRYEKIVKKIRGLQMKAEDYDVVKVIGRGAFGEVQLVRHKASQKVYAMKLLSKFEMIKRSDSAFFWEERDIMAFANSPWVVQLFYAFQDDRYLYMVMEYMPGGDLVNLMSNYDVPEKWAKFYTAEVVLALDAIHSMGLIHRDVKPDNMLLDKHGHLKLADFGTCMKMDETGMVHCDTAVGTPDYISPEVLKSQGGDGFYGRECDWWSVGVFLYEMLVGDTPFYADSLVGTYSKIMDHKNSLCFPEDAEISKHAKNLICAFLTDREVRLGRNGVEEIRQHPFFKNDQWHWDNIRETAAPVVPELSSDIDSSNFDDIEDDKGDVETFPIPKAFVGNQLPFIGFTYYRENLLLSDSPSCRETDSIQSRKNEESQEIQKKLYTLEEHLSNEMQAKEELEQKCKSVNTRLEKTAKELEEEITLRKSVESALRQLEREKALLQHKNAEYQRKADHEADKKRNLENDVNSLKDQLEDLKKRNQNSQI
Assignment: determine reported inhibition at 3 µM for the given compounds.
Give bare numbers, in %.

Completed entries (count: 5):
compound="CCNC(C(=O)Nc1ccc2[nH]ncc2c1)c1ccc(Cl)cc1 (centres unmarked)" tested_target="recombinant ROCK2 (amino acids 1-552) (Homo sapiens, UniProt O75116)" value_units=% quantitative_readout=96.3
compound="CNC(C(=O)Nc1ccc2[nH]ncc2c1)c1ccc(F)cc1 (centres unmarked)" tested_target="recombinant ROCK2 (amino acids 1-552) (Homo sapiens, UniProt O75116)" value_units=% quantitative_readout=96.6
compound="NC(C(=O)Nc1ccc2[nH]ncc2c1)c1ccccc1 (centres unmarked) [Comp3, reference compound]" tested_target="recombinant ROCK2 (amino acids 1-552) (Homo sapiens, UniProt O75116)" value_units=% quantitative_readout=97.4
compound="CC(C)NC(C(=O)Nc1ccc2[nH]ncc2c1)c1ccc(F)cc1 (centres unmarked)" tested_target="recombinant ROCK2 (amino acids 1-552) (Homo sapiens, UniProt O75116)" value_units=% quantitative_readout=94.6
compound="CCNC(C(=O)Nc1ccc2[nH]ncc2c1)c1ccc(OC)cc1 (centres unmarked)" tested_target="recombinant ROCK2 (amino acids 1-552) (Homo sapiens, UniProt O75116)" value_units=% quantitative_readout=98.8

Give inhibition at 3 µM for all compounds that follow.
1. CC(C)NC(C(=O)Nc1ccc2[nH]ncc2c1)c1ccc(Cl)cc1 (centres unmarked)
2. CCNC(C(=O)Nc1ccc2[nH]ncc2c1)c1ccc(C)cc1 (centres unmarked)
3. CCNC(C(=O)Nc1ccc2[nH]ncc2c1)c1ccccc1 (centres unmarked)
4. O=C(Nc1ccc2[nH]ncc2c1)C1CNc2ccccc2C1 (centres unmarked)
5. Cc1ccc(C(NC(C)C)C(=O)Nc2ccc3[nH]ncc3c2)cc1 (centres unmarked)
6. CNC(C(=O)Nc1ccc2[nH]ncc2c1)c1ccc(C)cc1 (centres unmarked)
7. NC(C(=O)Nc1ccc2[nH]ncc2c1)c1ccc(Cl)cc1 (centres unmarked) [Comp2, reference compound]
8. CC(C)NC(C(=O)Nc1ccc2[nH]ncc2c1)c1ccccc1 (centres unmarked)

OUTPUT:
1. 94.1
2. 98.8
3. 95.8
4. 0
5. 98.8
6. 98.8
7. 97.5
8. 96.7

* * *

assay: Mouse pharmacokinetic study, plasma and brain distribution 2 hours after dosing; format: in vivo; conditions: brain/plasma, PO 100 mg base/kg, 2 hours post-dose, read-out: Brain/Plasma Ratio
MEASURED_ATTRIBUTE: Kp at 2 h
Give bare numbers.

INPUT: Fill blank: measured Kp at 2 h of the molecule CNC(C(=O)Nc1ccc2[nH]ncc2c1)c1ccccc1 (stereo not shown) [Example 2] is ____.
OUTPUT: 2.08

* * *

target: recombinant ROCK2 (amino acids 1-552) (Homo sapiens); construct: ROCK2 (amino acids 1-552) proteins were purchased from ThermoFisher Scientific; experiment: Z'-lyte kinase assay, ROCK2
Assignment: determine reported log10 of IC50 for the given compounds.
Units before log transform: nM; reported quantity: IC50; transform: log10.

Give log10 of IC50 for all compounds that follow.
1. COc1cccc(C(NCCN(C)C)C(=O)Nc2ccc3[nH]ncc3c2)c1 (centres unmarked)
2. CC(C)NC(C(=O)Nc1ccc2[nH]ncc2c1)c1ccc(F)cc1 (centres unmarked)
3. CNC(C(=O)Nc1ccc2[nH]ncc2c1)c1ccc(OC)cc1 (centres unmarked)

OUTPUT:
1. 2.64
2. 2.18
3. 0.56

Give log10 of IC50 for all compounds that follow.
1. NC(C(=O)Nc1ccc2[nH]ncc2c1)c1ccccc1F (centres unmarked) [Comp7, reference compound]
2. CNC(C(=O)Nc1ccc2[nH]ncc2c1)c1ccc(F)cc1 (centres unmarked)

OUTPUT:
1: 2.48; 2: 2.20

Give log10 of IC50 for all compounds that follow.
1. CNC(C(=O)Nc1ccc2[nH]ncc2c1)c1ccc(OC)c(F)c1 (centres unmarked)
2. CNC(C(=O)Nc1ccc2[nH]ncc2c1)c1ccccc1Cl (centres unmarked)
3. CCNC(C(=O)Nc1ccc2[nH]ncc2c1)c1cccc(F)c1 (centres unmarked)
4. CNC(C(=O)Nc1ccc2[nH]ncc2c1)c1ccccn1 (centres unmarked)
5. COc1ccc(C(NC(C)C)C(=O)Nc2ccc3[nH]ncc3c2)cc1 (centres unmarked)
6. CNC(C(=O)Nc1ccc2[nH]ncc2c1)c1cccc(Cl)c1 (centres unmarked)
7. CNC(C(=O)Nc1ccc2[nH]ncc2c1)c1ccc(OC(C)C)cc1 (centres unmarked)

OUTPUT:
1. 1.40
2. 2.13
3. 1.72
4. 2.66
5. 0.99
6. 1.20
7. 2.66

Give log10 of IC50 for all compounds that follow.
1. CN[C@@H](C(=O)Nc1ccc2[nH]ncc2c1)c1cccc(OC)c1
2. CNC(C(=O)Nc1ccc2[nH]ncc2c1)c1ccc(Cl)cc1 (centres unmarked)
3. CCNC(C(=O)Nc1ccc2[nH]ncc2c1)c1ccc(Cl)cc1 (centres unmarked)
4. CNC(C(=O)Nc1ccc2[nH]ncc2c1)c1ccc(C)cc1 (centres unmarked)
5. CNC(C(=O)Nc1ccc2[nH]ncc2c1)c1cccc(F)c1 (centres unmarked)
6. CNC(C(=O)Nc1ccc2[nH]ncc2c1)c1cccc(OC)c1 (centres unmarked)
7. Cc1ccc(C(N)C(=O)Nc2ccc3[nH]ncc3c2)cc1 (centres unmarked) [Comp5, reference compound]
8. CCNC(C(=O)Nc1ccc2[nH]ncc2c1)c1ccc(C)cc1 (centres unmarked)

OUTPUT:
1. 1.15
2. 1.18
3. 2.39
4. 1.33
5. 1.61
6. 1.23
7. 1.52
8. 1.11

Give log10 of IC50 for all compounds that follow.
1. CN[C@H](C(=O)Nc1ccc2[nH]ncc2c1)c1cccc(OC)c1
2. CNC(C(=O)N(CCN(C)C)c1ccc2[nH]ncc2c1)c1cccc(OC)c1 (centres unmarked)
3. O=C(Nc1ccc2[nH]ncc2c1)C1NCCc2ccccc21 (centres unmarked)
4. CNC(C(=O)Nc1ccc2[nH]ncc2c1)c1ccc(Oc2cccc(OC)c2)cc1 (centres unmarked)
5. CNC(C(=O)Nc1ccc2[nH]ncc2c1)c1cccc(OC(F)(F)F)c1 (centres unmarked)
6. CNC(C(=O)Nc1ccc2[nH]ncc2c1)c1ccc(OC(F)(F)F)cc1 (centres unmarked)

OUTPUT:
1. 1.48
2. 3.21
3. 1.89
4. 1.00
5. 1.32
6. 1.66

Give log10 of IC50 for all compounds that follow.
1. CNC(C(=O)Nc1ccc2[nH]ncc2c1)c1ccccc1 (centres unmarked)
2. CCNC(C(=O)Nc1ccc2[nH]ncc2c1)c1cccc(Cl)c1 (centres unmarked)
3. NC(C(=O)Nc1ccc2[nH]ncc2c1)c1cccc(F)c1 (centres unmarked) [Comp6, reference compound]
4. CCNC(C(=O)Nc1ccc2[nH]ncc2c1)c1ccc(F)cc1 (centres unmarked)
5. COc1ccc(C(NC2CC2)C(=O)Nc2ccc3[nH]ncc3c2)cc1 (centres unmarked)
6. Cc1ccc(C(NC(C)(C)C)C(=O)Nc2ccc3[nH]ncc3c2)cc1 (centres unmarked)
7. CC(C)(C)NC(C(=O)Nc1ccc2[nH]ncc2c1)c1ccccc1 (centres unmarked)

OUTPUT:
1. 1.32
2. 1.81
3. 1.62
4. 1.63
5. 1.82
6. 1.44
7. 1.87

INPUT: Fill blank: measured log10 of IC50 of the compound CNC(C(=O)Nc1ccc2[nH]ncc2c1)c1cccnc1 (centres unmarked) is ____.
OUTPUT: 2.33

* * *

system: phospho-myosin light chains (ppMlc, Thr18/Ser19) in A7R5 cells; assay: A7R5 in-cell ELISA, phospho-myosin light chain; type: cell-based, rat; settings: Rattus norvegicus, 1.5 h; A7R5 cells, 90 min; read-out: pMLC IC50 A7R5
Assignment: determine reported pIC50 for the given compounds.
One number for each entry, as −log10 of the molar value.

Completed entries (count: 4):
compound="NC(C(=O)Nc1ccc2[nH]ncc2c1)c1cccc(F)c1 (centres unmarked) [Comp6, reference compound]" measured_attribute=pIC50 quantitative_readout=5.16
compound="CNC(C(=O)Nc1ccc2[nH]ncc2c1)c1ccc(C)cc1 (centres unmarked)" measured_attribute=pIC50 quantitative_readout=6.08
compound="Cc1ccc(C(NC(C)(C)C)C(=O)Nc2ccc3[nH]ncc3c2)cc1 (centres unmarked)" measured_attribute=pIC50 quantitative_readout=5.87
compound="CNC(C(=O)Nc1ccc2[nH]ncc2c1)c1cccc(C)c1 (centres unmarked)" measured_attribute=pIC50 quantitative_readout=6.27

INPUT: Fill blank: measured pIC50 of the compound CNC(C(=O)Nc1ccc2[nH]ncc2c1)c1ccccc1Cl (centres unmarked) is ____.
OUTPUT: 6.34

* * *

Assignment: determine reported concentration at 0.25 h for the given molecules.
experiment: Brain and plasma concentrations in mouse by HPLC/MS/MS after 2.5 mg/kg IV; type: in vivo; conditions: brain, iv, 2.5 mg/kg, read-out: Mean Conc. at 0.25 hr, Brain
Answers are plain numbers, in ng/g.

molecule="CNC(C(=O)Nc1ccc2[nH]ncc2c1)c1cccc(OC)c1 (centres unmarked)" measured_attribute="concentration at 0.25 h" quantitative_readout=566

Pending molecule:
INPUT: Fill blank: measured concentration at 0.25 h of the molecule CNC(C(=O)Nc1ccc2[nH]ncc2c1)c1ccc(Oc2cccc(OC)c2)cc1 (centres unmarked) is ____.
OUTPUT: 853
